Test: chemical genetic growth profiling, strain panel (AID 1159580);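 note: tested at 20 µM; growth read once vehicle control cultures reached saturation at 30 °C; 1 = growth at the plate median or of vehicle wells; lower values mean less growth of the strain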
Details: S. cerevisiae deletion strains, growth OD, locus YOR001W, strain rrp6
The campaign covered roughly 5,500 compounds. About 2,000 (36%) were called active. Roughly 18% stayed inconclusive and do not appear here. Cut-off read from the data, not from the text of the source: active = normalized growth mostly below about 0.91 (no sharp cut-off); inconclusive = no clear call, values can overlap the other calls; inactive = mostly above about 0.92. The list shows a part of the results.
I would appreciate it if you answered using one of these outcomes: active, inactive

molecule: NCCCCN=C(N)N
classification: inactive
//
molecule: O=C(O)c1cc(=O)c(O)c2c(O)c(O)ccc2c1
classification: inactive
//
molecule: c1ccc2[nH]c(-c3cscn3)nc2c1
classification: inactive
//
molecule: O=C(O)c1cc(=O)c2c(OCC(O)COc3cccc4oc(C(=O)O)cc(=O)c34)cccc2o1
classification: inactive
//
molecule: O=C(O)c1cc(O)c(O)c(O)c1
classification: inactive
//
molecule: Cc1cccc(CN2CCN(C(c3ccccc3)c3ccc(Cl)cc3)CC2)c1 (stereo unspecified)
classification: active

Data request: // outcome(item) with item = Nc1ccc(S(=O)(=O)Nc2nccs2)cc1
Data returned: inactive

---

Here the recorded normalized growth is given for each entry.
Test: chemical genetic growth profiling, strain panel (AID 1159580);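 note: tested at 20 µM; growth read once vehicle control cultures reached saturation at 30 °C; 1 = growth at the plate median or of vehicle wells; lower values mean less growth of the strain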
Details: S. cerevisiae deletion strains, growth OD, locus YHR142W, strain chs7, hits give low values
Among all 5,500 compounds or so, about 2,000 (36%) were called active. Inconclusive results (about 18%) are left out. Some of the results follow.
Reply with the value as a number alone.

// solved cases for normalized growth follow
compound: CC1=C(/C=C/C(C)=C/C=C/C(C)=C/C=C/C=C(C)/C=C/C=C(C)/C=C/C2=C(C)CCCC2(C)C)C(C)(C)CCC1
quantity: normalized growth
value-measured: 0.967

compound: c1cc2c(cc1[C@H]1OC[C@H]3[C@@H]1CO[C@H]3c1ccc3c(c1)OCO3)OCO2
quantity: normalized growth
value-measured: 0.803

So for CC1=C(/C=C/C(C)=C/C=C/C(C)=C/C(=O)O)C(C)(C)CCC1 , the logged normalized growth turned out to be 0.957

So for CCn1cc(C(=O)O)c(=O)c2cc3c(cc21)OCO3 , the logged normalized growth turned out to be 0.933

So for CCn1cc(C(=O)O)c(=O)c2cnc(N3CCNCC3)nc21 , the logged normalized growth turned out to be 1.04

So for O=C(O)c1cc(=O)c2c(OCC(O)COc3cccc4oc(C(=O)O)cc(=O)c34)cccc2o1 , the logged normalized growth turned out to be 0.966

So for NCc1ccc(S(N)(=O)=O)cc1 , the logged normalized growth turned out to be 1.01

So for C#C[C@]1(O)CCC2C3CCc4cc(O)ccc4C3CC[C@@]21C (stereo partly specified) , the logged normalized growth turned out to be 0.946

So for COS(C)(=O)=O , the logged normalized growth turned out to be 1.01

So for O=C(O)c1ccc2c(c1)OCO2 , the logged normalized growth turned out to be 1

So for C[C@@H]1C[C@@H]([C@H](O)CC2CC(=O)NC(=O)C2)C(=O)[C@@H](C)C1 , the logged normalized growth turned out to be 0.0716

---

Test: chemical genetic growth profiling, strain panel (AID 1159580);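 note: tested at 20 µM; growth read once vehicle control cultures reached saturation at 30 °C; 1 = growth at the plate median or of vehicle wells; lower values mean less growth of the strain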
Settings: S. cerevisiae deletion strains, growth OD, locus YNL224C, strain SQS1, hits give low values
In all, about 5,500 compounds went through this assay and about 2,000 (36%) were called active. About 18% were inconclusive and are not listed. This is one part of the list.
Here the recorded normalized growth is given for each entry.

// solved cases for normalized growth follow
compound: Oc1ccc(/C=C/c2cc(O)cc(O)c2)cc1
quantity: normalized growth
value-measured: 0.974 (inactive)

compound: CCN1C(=O)C=CC1=O
quantity: normalized growth
value-measured: 1 (inactive)

compound: CCCNC(C)C(=O)Nc1ccccc1C (configuration not stated)
quantity: normalized growth
value-measured: 0.989 (inactive)

compound: CC(N)(Cc1ccc(O)c(O)c1)C(=O)O (configuration not stated)
quantity: normalized growth
value-measured: 1.01 (inactive)

So for CCC(C)N(C)C(=O)c1cc2ccccc2c(-c2ccccc2Cl)n1 (configuration not stated) , the logged normalized growth turned out to be 0.988 (inactive)

So for C[C@@](Cc1ccc(O)c(O)c1)(NN)C(=O)O , the logged normalized growth turned out to be 1.02 (inactive)

So for COC(=O)C(C)(N)Cc1ccc(O)cc1 (configuration not stated) , the logged normalized growth turned out to be 0.997 (inactive)
